The measurements presented in this section are drawn from PubChem BioAssay AID1159580.

assay: chemical genetic growth profiling, strain panel (AID 1159580);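 also: tested at 20 µM; growth read once vehicle control cultures reached saturation at 30 °C; 1 = growth at the plate median or of vehicle wells; lower values mean less growth of the strain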; details: S. cerevisiae deletion strains, growth OD, locus YER155C, strain BEM2 (second series)
Out of some 5,500 compounds screened, about 2,000 (36%) were called active. Another 18% or so got no clear call; they are omitted. Rule as the data show it: active = normalized growth mostly below about 0.91 (no sharp cut-off); inconclusive = no clear call, values can overlap the other calls; inactive = mostly above about 0.92. This is one part of the list.
Outcomes: yes for active, no for inactive

1) COc1ccc(-c2oc3cc(OC)c(OC)c(OC)c3c(=O)c2OC)cc1OC : no
2) Fc1ccc([C@@H]2CCNC[C@H]2COc2ccc3c(c2)OCO3)cc1 : no
3) COc1ccc2oc3ccccc3c(=O)c2c1 : yes
4) CN(C/C=C/C#CC(C)(C)C)Cc1cccc2ccccc12 : yes
5) CC(O)(P(=O)(O)O)P(=O)(O)O : no
6) O=C1CCCN1CC#CCN1CCCC1 : no
7) O=C(O)C1CCCNC1 (configuration not stated) : no

====

test: chemical genetic growth profiling, strain panel (AID 1159580);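 also: tested at 20 µM; growth read once vehicle control cultures reached saturation at 30 °C; 1 = growth at the plate median or of vehicle wells; lower values mean less growth of the strain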; details: S. cerevisiae deletion strains, growth OD, locus YJL187C, strain SWE1 (second series), active compounds read low
The whole screen tested about 5,500 compounds, of which about 2,000 (36%) were called active. Another 18% or so got no clear call; they are omitted. Some of the results follow. Where a SMILES comes first, the peptide text is derived from it.
measurement_label: normalized growth

1. CC(C)=CC1C(C(=O)OCc2cccc(Oc3ccccc3)c2)C1(C)C (stereo not drawn) : 1.04
2. CC1[C@H](C)OC(=O)CC(O)CC(O)CC(O)CCC(O)C(O)C[C@]2(O)CC(O)C(C(=O)O)C(CC(OC3O[C@H](C)[C@@H](O)[C@H](N)[C@@H]3O)/C=C/C=C/C=C/C=C/CC/C=C/C=C/[C@H](C)[C@H]1O)O2 (stereo partly drawn) : 0.168
3. O=C(O)CCCCCCCC(=O)O : 0.976
4. COc1ccc(CCC(=O)c2c(O)cc(O[C@@H]3O[C@H](CO)C(O)[C@H](O)C3O[C@@H]3O[C@@H](C)[C@H](O)[C@@H](O)[C@H]3O)cc2O)cc1O (stereo partly drawn) : 0.984
5. C[C@]12CCC3c4ccc(OC(=O)CCC(=O)O)cc4CCC3C1CCC2=O (stereo partly drawn) : 0.974
6. COC1C=CC23c4cc5c(cc4CN(CC2O)[C@@H]3C1)OCO5 (stereo partly drawn) : 1.04
7. CC(=O)O[C@]1(C)CC[C@@]23CC1C(C)(C)[C@@H]2CC[C@H]3C : 0.97
8. c1ccc2c(CC3=NCCN3)cccc2c1 : 1.01
9. CC12CCC3C(=CCc4cc(O)ccc43)C1CCC2=O (stereo not drawn) : 0.928
10. NCCCC(=O)O : 1.01
11. Oc1c(Cl)cc(Cl)c(Cl)c1Cc1c(O)c(Cl)cc(Cl)c1Cl : 0.0437
12. O=C(O)COc1ccc(Cl)cc1Cl : 1.01
13. CCCNC(=O)NS(=O)(=O)c1ccc(Cl)cc1 : 1.03
14. NC1(C(=O)O)CCCC1 : 1.01
15. COC(=O)/C(C)=C\CC12OC(C)(C)C3CC(C=C4C(=O)c5c(OC)c6c(c(CC=C(C)C)c5OC431)OC(C)(CCC=C(C)C)C=C6)C2=O (stereo not drawn) : 0.976
16. O=C(O)C1CCCNC1 (stereo not drawn) : 1.02
17. Cc1onc(-c2ccccc2)c1-c1ccc(S(N)(=O)=O)cc1 : 1
18. NCCCCCC(=O)O : 0.992
19. CC(=O)N[C@@H](CC(=O)O)C(=O)N[C@@H](CCC(=O)O)C(=O)O (Ac-Asp-Glu-OH) : 1.01
20. CCCCCCCCCCCC(=O)OCC(COP(=O)(O)OCC(O)COP(=O)(O)OCC(COC(=O)CCCCCCCCCCC)OC(=O)CCCCCCCCCCC)OC(=O)CCCCCCCCCCC (stereo not drawn) : 0.703
21. NCCCCC(=O)O : 1.02
22. C[C@@H]1CC[C@H]2C(C)(C)C3CC12CC[C@@]3(C)O (stereo partly drawn) : 0.986
23. C[C@]12CCC3c4ccc(OC(=O)c5ccccc5)cc4CCC3C1CCC2=O (stereo partly drawn) : 1.01
